- subject_of_test: human MRGPRD (Homo sapiens)
- Sequence (Q8TDS7 whole entry): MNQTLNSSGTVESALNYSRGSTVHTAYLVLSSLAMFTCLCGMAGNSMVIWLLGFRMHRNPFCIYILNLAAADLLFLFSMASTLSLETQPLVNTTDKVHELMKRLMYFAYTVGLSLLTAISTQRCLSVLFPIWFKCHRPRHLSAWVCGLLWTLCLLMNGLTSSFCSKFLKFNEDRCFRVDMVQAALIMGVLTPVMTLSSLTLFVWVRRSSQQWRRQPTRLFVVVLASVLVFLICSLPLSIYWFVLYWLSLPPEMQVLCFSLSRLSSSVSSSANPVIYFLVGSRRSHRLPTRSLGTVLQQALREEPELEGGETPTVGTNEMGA
- assay_procedure: MRGPRD antagonist activity, IP-One HTRF assay in CHO cells stably expressing human MRGPRD (versus 100 μM β-Alanine agonist)
Attribute: IC50

# example entries with known answers
CC(NC(=O)c1nnn(-c2ccc(-c3ccc(C#N)c(F)c3)cc2)c1C1CC1)c1ccn(C)n1 (stereo not shown) [Compound 15-7]    1000 to 3000 nM
Cn1nc(-c2ccccc2)cc1-c1ccc(-n2nnc(C(=O)Nc3ccncc3)c2C2CC2)cc1 [Compound 7-68]    100 to 500 nM
O=C(Nc1ccnc(N2CCOCC2)c1)c1nnn(-c2ccc(-c3ccccc3)cc2)c1C1CC1 [Compound 14-48]    1000 to 3000 nM
Cn1c(CNC(=O)c2nnn(-c3ccc(-c4ccc(CC#N)cc4)cc3)c2C2CC2)nc2ccccc21 [Compound 15-6]    1000 to 3000 nM
CC[C@H](NC(=O)c1nnn(-c2ccc(-c3ccccc3)cc2)c1C1CC1)c1ccccc1 [Compound 14-37]    1000 to 3000 nM
N#Cc1ccccc1-c1ccc(-n2nnc(C(=O)Nc3ccncc3)c2C2CC2)cc1 [Compound 7-180]    1000 to 3000 nM

Lab note: measured IC50 of Nc1cc(-c2ccc(-n3nnc(C(=O)Nc4ccncc4)c3C3CC3)cc2)n[nH]1 [Compound 7-5] was > 3000 nM

Lab note: measured IC50 of CCn1cc(CNC(=O)c2nnn(-c3ccc(-c4c(C)nn(-c5ccccc5)c4C)cc3)c2C2CC2)cn1 [Compound 10-9] was < 100 nM

Lab note: measured IC50 of COc1ccc(-c2ccc(-n3nnc(C(=O)Nc4ccncc4)c3C3CC3)cc2)c(F)c1 [Compound 7-35] was 100 to 500 nM
